experiment: self-splicing fitness, log relative to wild type (ln ratio); higher = more splicing; Tetrahymena group I intron in knt gene, E. coli kanamycin selection, DiMSum; sequences stand for … in CUCUCU…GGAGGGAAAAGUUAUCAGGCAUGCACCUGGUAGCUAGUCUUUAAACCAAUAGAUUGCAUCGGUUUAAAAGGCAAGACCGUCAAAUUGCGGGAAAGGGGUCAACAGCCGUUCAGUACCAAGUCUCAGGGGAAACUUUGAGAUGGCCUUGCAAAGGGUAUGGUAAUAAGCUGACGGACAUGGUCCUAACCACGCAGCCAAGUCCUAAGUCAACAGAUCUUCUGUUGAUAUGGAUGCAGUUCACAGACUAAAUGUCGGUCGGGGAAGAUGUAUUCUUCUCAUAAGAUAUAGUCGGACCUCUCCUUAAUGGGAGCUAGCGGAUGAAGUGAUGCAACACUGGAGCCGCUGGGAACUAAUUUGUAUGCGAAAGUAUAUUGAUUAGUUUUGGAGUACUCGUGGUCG; conditions: 30 °C;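 also: selection with 25 µg/mL kanamycin versus none on LB agar overnight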
measurement_kind: self-splicing fitness (ln)

[
  {
    "residue_sequence": "GUUAAGCAAUAUUACGAUUG",
    "self-splicing fitness (ln)": -3.09
  },
  {
    "residue_sequence": "ACAGAGCAAUAUUACGUAUG",
    "self-splicing fitness (ln)": -2.91
  },
  {
    "residue_sequence": "AACGAGCAAUAUUACGUUGU",
    "self-splicing fitness (ln)": -3.8
  },
  {
    "residue_sequence": "UGUUAGCAAUAUUACGCCCA",
    "self-splicing fitness (ln)": 0.342
  },
  {
    "residue_sequence": "GUCGAGCAAUAUUACGGUCG",
    "self-splicing fitness (ln)": -2.44
  },
  {
    "residue_sequence": "UCGUAGCAAUAUUACGACAU",
    "self-splicing fitness (ln)": -3.86
  }
]

Q: Requested field: self-splicing fitness (ln). Item: CUGUAGCAAUAUUACGGGAC
Result: -1.04

Q: Here is the next sequence: CAACAGCAAUAUUACGGCGC
Result: -1.94

Q: Cool, now AUUUAGCAAUAUUACGAGUA
Result: -2.95

Q: Also UCGAAGCAAUAUUACGGAUC , if possible.
Result: -3.14

Q: Please give the result for UAGCAGCAAUAUUACGCUAU too.
Result: -3.88

Q: Quick one: CCUCAGCAAUAUUACGCAGC
Result: -3.42

Q: Note, next up: AUAAAGCAAUAUUACGAAAU
Result: -0.905

Q: Please do the same for CAGCAGCAAUAUUACGCGGG as well.
Result: -2.78

Q: Next record, please: UUGAAGCAAUAUUACGAGUU
Result: -3.34

Q: // next record ACAUAGCAAUAUUACGAUUU
Result: -0.687

* * *

assay: self-splicing fitness, log relative to wild type (ln ratio); higher = more splicing; Tetrahymena group I intron in knt gene, E. coli kanamycin selection, DiMSum; sequences stand for … in CUCUCU…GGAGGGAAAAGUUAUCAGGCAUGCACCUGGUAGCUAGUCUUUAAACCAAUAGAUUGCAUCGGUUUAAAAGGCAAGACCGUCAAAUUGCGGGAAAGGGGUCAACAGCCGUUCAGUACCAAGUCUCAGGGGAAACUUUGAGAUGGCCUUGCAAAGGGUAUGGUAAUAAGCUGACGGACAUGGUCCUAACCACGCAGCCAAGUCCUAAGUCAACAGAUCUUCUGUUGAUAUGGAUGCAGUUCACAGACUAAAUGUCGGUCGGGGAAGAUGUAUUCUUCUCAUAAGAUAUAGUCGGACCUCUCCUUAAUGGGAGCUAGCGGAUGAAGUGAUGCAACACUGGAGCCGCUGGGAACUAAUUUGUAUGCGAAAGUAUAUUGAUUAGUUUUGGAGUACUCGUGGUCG; settings: 37 °C
Listed sequences paired with reported self-splicing fitness (ln)
Respond numerically, and do not add a unit to the figure.

Q: Report self-splicing fitness (ln) for CAAUAGCAAUAUUACGGGGU please.
Result: -2.48

Q: # iterate: GGUGAGCAAUAUUACGAUGG
Result: -1.2
